# test_target: Ubiquitin-activating enzyme e1, putative (Leishmania donovani (strain BPK282A1)) (UniProt E9BSI1)
# Sequence (E9BSI1 as listed by the source): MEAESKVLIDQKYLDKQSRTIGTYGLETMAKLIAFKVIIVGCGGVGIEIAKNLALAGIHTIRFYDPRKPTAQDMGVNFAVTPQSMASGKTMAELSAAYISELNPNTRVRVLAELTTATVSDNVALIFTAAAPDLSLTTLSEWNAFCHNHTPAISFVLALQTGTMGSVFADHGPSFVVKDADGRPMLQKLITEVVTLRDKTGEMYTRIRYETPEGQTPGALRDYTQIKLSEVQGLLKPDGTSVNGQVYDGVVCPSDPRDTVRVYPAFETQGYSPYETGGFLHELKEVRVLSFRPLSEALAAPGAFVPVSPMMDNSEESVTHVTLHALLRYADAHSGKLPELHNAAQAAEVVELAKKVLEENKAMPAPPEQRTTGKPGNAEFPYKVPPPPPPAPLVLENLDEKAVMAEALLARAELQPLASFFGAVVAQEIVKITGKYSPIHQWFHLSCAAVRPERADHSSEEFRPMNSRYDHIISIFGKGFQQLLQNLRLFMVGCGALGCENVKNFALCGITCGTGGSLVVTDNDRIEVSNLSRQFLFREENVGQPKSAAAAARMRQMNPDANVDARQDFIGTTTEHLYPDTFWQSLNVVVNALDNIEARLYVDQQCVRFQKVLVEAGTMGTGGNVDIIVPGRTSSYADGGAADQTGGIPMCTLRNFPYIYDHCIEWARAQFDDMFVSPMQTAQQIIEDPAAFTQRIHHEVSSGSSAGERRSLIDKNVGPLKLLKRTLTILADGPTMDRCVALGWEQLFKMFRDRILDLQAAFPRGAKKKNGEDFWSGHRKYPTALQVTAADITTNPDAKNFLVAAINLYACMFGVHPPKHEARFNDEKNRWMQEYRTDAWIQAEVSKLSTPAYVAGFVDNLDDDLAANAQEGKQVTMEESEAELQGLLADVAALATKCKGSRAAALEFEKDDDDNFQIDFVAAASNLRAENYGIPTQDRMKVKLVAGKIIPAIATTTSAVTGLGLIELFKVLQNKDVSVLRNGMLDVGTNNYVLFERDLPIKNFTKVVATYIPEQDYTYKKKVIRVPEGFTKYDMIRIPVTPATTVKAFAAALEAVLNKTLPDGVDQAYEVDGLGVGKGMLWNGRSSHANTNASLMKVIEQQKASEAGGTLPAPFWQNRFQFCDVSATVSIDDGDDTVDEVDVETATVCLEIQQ
# measurement_notes: Leishmania donovani Ubiquitin Activating Enzyme (LdE1)
# Type: functional
# Parameters: scale not given: direction of the effect not stated beside the values
# applied_conditions: 30 µM
Measured potencies and affinities stand elsewhere.
Quick rule for you: Percent Effect at 5% or higher means met, lower means not met.

molecule="COC(=O)N1CCCC(C(=O)NCc2cc3cccc(OC)c3o2)C1 (stereo unspecified)" class_label=met

Decide: is the reported value of Percent Effect for `Cc1ccc(CN2C[C@@H]3COC[C@@H](NS(C)(=O)=O)[C@@H]3C2)o1` equal to or greater than 5%? not met

Decide: is the reported value of Percent Effect for `CNS(=O)(=O)c1cccc(CNc2ccc(C(F)(F)F)nn2)c1` equal to or greater than 5%? met
